# credit: paper PMC8523698

target: CYP2C19 (Homo sapiens, UniProt P33261); assay: Reversible CYP inhibition in human liver microsomes; details: human, microsomes, pH 7.4, Percent of Control Activity, CYP 2C19, 93.5 µM, 30-Minute Preincubation
Sequence (P33261 whole entry): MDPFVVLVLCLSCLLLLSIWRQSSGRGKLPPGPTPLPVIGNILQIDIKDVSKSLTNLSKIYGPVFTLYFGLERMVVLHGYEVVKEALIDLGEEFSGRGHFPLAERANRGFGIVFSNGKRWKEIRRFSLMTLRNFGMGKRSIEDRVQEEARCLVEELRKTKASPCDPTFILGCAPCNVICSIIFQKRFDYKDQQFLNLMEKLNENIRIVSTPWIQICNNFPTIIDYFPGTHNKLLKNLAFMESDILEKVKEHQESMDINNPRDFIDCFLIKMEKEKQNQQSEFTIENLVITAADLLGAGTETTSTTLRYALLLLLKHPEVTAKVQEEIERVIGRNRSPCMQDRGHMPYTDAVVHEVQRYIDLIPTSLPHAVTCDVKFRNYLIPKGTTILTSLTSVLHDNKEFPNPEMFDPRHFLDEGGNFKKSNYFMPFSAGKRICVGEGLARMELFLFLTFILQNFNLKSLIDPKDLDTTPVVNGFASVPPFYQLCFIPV
Recorded metric: activity at 93.5 µM
Include the unit right after the number.

GET /values?readout=activity at 93.5 µM&system=CYP2C19 (Homo sapiens, UniProt P33261)&item= COc1cccc2[nH]c(C(=O)N[C@@H](CC(C)C)C(=O)N[C@@H](C[C@@H]3CCNC3=O)C(=O)CO)cc12 [PF-00835231] 74.5%

###

target: CYP2C8 (Homo sapiens, UniProt P10632); test: Reversible CYP inhibition in human liver microsomes; details: human, microsomes, pH 7.4, Percent of Control Activity, CYP 2C8, 43.8 µM, 30-Minute Preincubation
Sequence (P10632 whole entry): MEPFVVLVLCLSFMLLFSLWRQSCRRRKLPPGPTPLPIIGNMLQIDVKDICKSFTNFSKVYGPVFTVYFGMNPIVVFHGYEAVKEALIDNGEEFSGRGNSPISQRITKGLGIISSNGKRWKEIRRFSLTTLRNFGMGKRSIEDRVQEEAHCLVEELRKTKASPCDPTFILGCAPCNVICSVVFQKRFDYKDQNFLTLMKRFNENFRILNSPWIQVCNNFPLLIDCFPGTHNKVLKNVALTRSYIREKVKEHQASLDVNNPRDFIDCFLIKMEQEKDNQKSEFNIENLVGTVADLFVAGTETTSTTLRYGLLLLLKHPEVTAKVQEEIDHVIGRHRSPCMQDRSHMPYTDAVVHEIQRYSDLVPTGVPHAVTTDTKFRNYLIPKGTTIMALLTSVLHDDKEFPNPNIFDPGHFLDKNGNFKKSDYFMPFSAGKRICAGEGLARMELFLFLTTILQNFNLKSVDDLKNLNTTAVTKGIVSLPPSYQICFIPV
Recorded metric: activity at 43.8 µM (%)
A number alone suffices; assume %.

# query: activity at 43.8 µM of entry COc1cccc2[nH]c(C(=O)N[C@@H](CC(C)C)C(=O)N[C@@H](C[C@@H]3CCNC3=O)C(=O)CO)cc12 [PF-00835231] 82.6
